# targetOrTestSystem: SHV-12 (Klebsiella pneumoniae, UniProt P0AD64, E235K/G234S/L31Q)
# Sequence (P0AD64 22-286 L31Q/G234S/E235K): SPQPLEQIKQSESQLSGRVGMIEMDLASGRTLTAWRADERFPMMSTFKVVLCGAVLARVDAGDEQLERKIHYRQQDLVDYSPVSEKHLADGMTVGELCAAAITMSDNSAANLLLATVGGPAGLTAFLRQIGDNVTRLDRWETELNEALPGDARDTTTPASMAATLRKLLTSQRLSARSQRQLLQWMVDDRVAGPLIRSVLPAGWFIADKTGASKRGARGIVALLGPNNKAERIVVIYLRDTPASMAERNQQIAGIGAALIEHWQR
# assay: Inhibition of purified beta-lactamase, nitrocefin cleavage
# settings: read-out: Ki (SHV-12, NCF)
Give Ki for every item shown.

The compound O=C(O)c1cccc2c1OB(O)[C@@H](Sc1nnc[nH]1)C2 showed Ki equal to < 100 nM

The compound NC(=O)CC1Cc2cccc(C(=O)O)c2OB1O (stereo not shown) showed Ki equal to < 100 nM

The compound CS[C@H]1Cc2cccc(C(=O)O)c2OB1O showed Ki equal to 100 to 1000 nM

The compound CO[C@H]1Cc2ccc(F)c(C(=O)O)c2OB1O showed Ki equal to < 100 nM

The compound NC(=O)CS[C@H]1Cc2cccc(C(=O)O)c2OB1O showed Ki equal to 100 to 1000 nM

The compound Nc1nnc(S[C@H]2Cc3ccc(F)c(C(=O)O)c3OB2O)s1 showed Ki equal to < 100 nM

The compound CSc1ccc2c(c1C(=O)O)OB(O)[C@@H](Sc1nncn1N)C2 showed Ki equal to < 100 nM

###

# targetOrTestSystem: KPC-2 (Klebsiella pneumoniae, UniProt Q9F663)
# Sequence (Q9F663 25-293, looked up, species assumed): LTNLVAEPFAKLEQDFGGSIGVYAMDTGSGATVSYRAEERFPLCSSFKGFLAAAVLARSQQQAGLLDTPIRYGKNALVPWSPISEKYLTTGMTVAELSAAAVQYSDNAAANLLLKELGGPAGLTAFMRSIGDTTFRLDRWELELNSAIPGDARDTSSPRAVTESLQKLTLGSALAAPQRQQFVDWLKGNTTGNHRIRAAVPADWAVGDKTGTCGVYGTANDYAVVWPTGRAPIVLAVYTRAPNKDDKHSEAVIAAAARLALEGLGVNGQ
# assay: Inhibition of purified beta-lactamase, nitrocefin cleavage
# Assay type: biochemical
# settings: read-out: Ki (KPC-2, NCF)
pKi: −log10 of the molar value.
Give pKi for every item shown.

The compound CO[C@H]1Cc2ccc(F)c(C(=O)O)c2OB1O showed pKi equal to > 7.00

The compound O=C(O)c1cccc2c1OB(O)[C@@H](OC1CNC1)C2 showed pKi equal to 6.00 to 7.00

The compound C[C@]1(Cn2ccnn2)[C@H](C(=O)O)N2C(=O)C[C@H]2S1(=O)=O [Tazobactam, reference compound] showed pKi equal to < 6.00

The compound NC(=O)CCS[C@H]1Cc2cccc(C(=O)O)c2OB1O showed pKi equal to > 7.00

The compound NC(=O)CS[C@H]1Cc2cccc(C(=O)O)c2OB1O showed pKi equal to > 7.00

The compound CS[C@H]1Cc2cccc(C(=O)O)c2OB1O showed pKi equal to > 7.00

The compound CSc1ccc2c(c1C(=O)O)OB(O)[C@@H](Sc1nncn1N)C2 showed pKi equal to 6.00 to 7.00

The compound O=C(O)c1cccc2c1OB(O)[C@@H](Sc1nnc[nH]1)C2 showed pKi equal to 6.00 to 7.00

The compound Nc1nnc(S[C@H]2Cc3ccc(F)c(C(=O)O)c3OB2O)s1 showed pKi equal to > 7.00

The compound O=C(O)[C@H]1/C(=C/CO)O[C@@H]2CC(=O)N21 [Clavulanic acid, reference compound] showed pKi equal to < 6.00

The compound NC(=O)CC1Cc2cccc(C(=O)O)c2OB1O (stereo not drawn) showed pKi equal to > 7.00

The compound Cn1cnnc1S[C@H]1Cc2cccc(C(=O)O)c2OB1O showed pKi equal to 6.00 to 7.00

The compound Nn1cnnc1S[C@H]1Cc2ccc(F)c(C(=O)O)c2OB1O showed pKi equal to 6.00 to 7.00

The compound O=C(O)c1cccc2c1OB(O)[C@@H](Sc1c[nH]nn1)C2 showed pKi equal to 6.00 to 7.00

The compound CC(=N)S[C@H]1Cc2cccc(C(=O)O)c2OB1O showed pKi equal to 6.00 to 7.00

The compound CO[C@H]1Cc2cccc(C(=O)O)c2OB1O showed pKi equal to > 7.00

The compound O=C(O)c1cccc2c1OB(O)[C@@H](Sc1nncs1)C2 showed pKi equal to 6.00 to 7.00

The compound Cn1cnnc1S[C@H]1Cc2ccc(F)c(C(=O)O)c2OB1O showed pKi equal to 6.00 to 7.00
